Measured values drawn from paper PMC7248907 for this set.

Quick list: pKi per entry.
# TARGET_UNDER_TEST: cathepsin L (Homo sapiens)
# Sequence (P07711 114-333): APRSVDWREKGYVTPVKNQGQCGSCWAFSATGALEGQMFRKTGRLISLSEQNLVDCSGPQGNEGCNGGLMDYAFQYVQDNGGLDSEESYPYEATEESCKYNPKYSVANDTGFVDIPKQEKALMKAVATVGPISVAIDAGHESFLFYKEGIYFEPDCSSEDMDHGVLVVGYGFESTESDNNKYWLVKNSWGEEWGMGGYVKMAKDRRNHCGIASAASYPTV
# ASSAY_OVERVIEW: Fluorometric cathepsin L inhibition assay (Cbz-Phe-Arg-AMC)
# Assay type: biochemical
# Set-up: purchased Calbiochem, Merck Millipore
# EXPERIMENTAL_CONTEXT: final high-affinity complex; Ki/(1+k3/k4); read-out: Cath. L Ki^* Method 1
Lab note — pKi values are minus log10 of concentrations in M.

MOLECULE | pKi
CC(C)C[C@H](NC(=O)[C@H](Cc1ccccc1)NC1=C(Cl)C(=O)c2ccccc2C1=O)C(=O)O [Compound 3] | 7.28
CC(C)C[C@H](NC(=O)[C@H](Cc1ccccc1)NC1=C(C#N)C(=O)c2ccccc2C1=O)C(=O)O [Compound 4] | 7.72

Query: pKi; subject: CC(C)C[C@H](NC(=O)[C@H](Cc1ccccc1)NC1=C(C#N)C(=O)c2ccccc2C1=O)C(=O)OCc1ccccc1 [Compound 2] 7.92
